Tested on: A549 cells
Test: Bromodeoxyuridine (BrdU) proliferation assay
Assay type: cell-based, human
Conditions: Homo sapiens, A549, 48 h, BrdU ELISA 48 hours after addition of compound; tested 0.03-10 uM; cell line not given (A549 method; SW-480 and MDA-MB-231 also used); read-out: Assay Result (IC50μM)
property-name: pIC50
pIC50 here is simply -log10 of the concentration when that concentration is written in mol/L.

1) S=C(NNc1ncnc2cc(-c3ccc(Cl)cc3)sc12)Nc1ccccc1 [Compound 34] | 5.82
2) Cc1cc(C)cc(-c2cc3ncnc(NNC(=S)Nc4ccccc4)c3s2)c1 [Compound 50] | 6.03
3) S=C(NNc1ncnc2cc(-c3ccccc3)sc12)NC1CC1 [Compound 19] | 7.05
4) S=C(NNc1ncnc2cc(-c3ccccc3Cl)sc12)NC1CC1 [Compound 43] | 6.36
5) COCCNC(=S)NNc1ncnc2cc(-c3ccc4c(c3)OCO4)sc12 [Compound 102] | 6.41

**Query** Value wanted: pIC50 (A549 cells) of entry COCCCNC(=S)NNc1ncnc2cc(-c3ccccc3)sc12 [Compound 74]
**Result** 7.27

**Query** Query the reported pIC50 for A549 cells; item: Cc1cc(C)cc(-c2cc3ncnc(NNC(=S)NCC4CCCO4)c3s2)c1 (stereo not shown) [Compound 98]
**Result** 7.60

**Query** Which pIC50 is reported with A549 cells for this entry: S=C(NCCN1CCOCC1)NNc1ncnc2cc(-c3ccccc3)sc12 [Compound 68] ?
**Result** 5.22

**Query** Query for A549 cells: what pIC50 does the record show for COCCNC(=S)NNc1ncnc2cc(-c3cccc(C)c3)sc12 [Compound 88] ?
**Result** 7.22

**Query** Test system A549 cells; read-out pIC50; what value for S=C(NCc1ccccc1)NNc1ncnc2cc(-c3ccccc3)sc12 [Compound 57] ?
**Result** 6.64

**Query** What is its pIC50 for A549 cells? Entry: S=C(NCC1CC1)NNc1ncnc2cc(-c3ccccc3)sc12 [Compound 62]
**Result** 6.64

**Query** # get_value(readout= pIC50, system= A549 cells) for NC(=S)NNc1ncnc2cc(-c3ccccc3)sc12 [Compound 26]
**Result** 5.24

**Query** A549 cells / pIC50 / COCCNC(=S)NNc1ncnc2cc(-c3ccc(C)cc3)sc12 [Compound 87] : value?
**Result** 6.78

**Query** What value of pIC50 on A549 cells does S=C(NCc1ccco1)NNc1ncnc2cc(-c3ccccc3)sc12 [Compound 69] have?
**Result** 7.03

**Query** Recall the recorded pIC50 for S=C(NNc1ncnc2cc(-c3ccccc3)sc12)N[C@@H]1CCC[C@H]1OCc1ccccc1 [Compound 22] with A549 cells and state it.
**Result** 5.25

**Query** Entry Cc1cccc(-c2cc3ncnc(NNC(=S)N[C@@H]4CCC[C@H]4OCc4ccccc4)c3s2)c1 [Compound 47] , system A549 cells: what pIC50 was measured?
**Result** 5.15

**Query** Test system A549 cells; read-out pIC50; what value for S=C(NC[C@H]1CCCO1)NNc1ncnc2cc(-c3ccccc3)sc12 [Compound 64] ?
**Result** 6.73

**Query** Find the measured pIC50: item COc1ccc(OC)c(NC(=S)NNc2ncnc3cc(-c4ccccc4)sc23)c1 [Compound 16] , target or system A549 cells.
**Result** 6.00

**Query** Form entry - test system: A549 cells; read-out: pIC50; compound: FC(F)(F)c1ccccc1NC(=S)NNc1ncnc2cc(-c3ccccc3)sc12 [Compound 4]
**Result** 6.04

---

System: A549 cells
Assay: Bromodeoxyuridine (BrdU) proliferation assay
Type: cell-based, human
Settings: antiproliferative activity
property-name: Activity ranking: most active compounds of the invention

1) Cc1ccc(-c2cc3ncnc(NNC(=S)NC4CC4)c3s2)cc1C | most active
2) S=C(NNc1ncnc2cc(-c3ccccc3Cl)sc12)NC1CC1 | most active
3) S=C(NNc1ncnc2cc(-c3ccccc3)sc12)NC1CC1 | most active
4) S=C(NNc1ncnc2cc(-c3cccc(Cl)c3)sc12)NC1CC1 | most active
5) S=C(NNc1ncnc2cc(-c3ccccc3)sc12)Nc1ccccc1 [Compound 2] | most active

**Query** State its Activity ranking: most active compounds of the invention on A549 cells: Cc1cccc(-c2cc3ncnc(NNC(=S)NC(C)C)c3s2)c1
**Result** most active

**Query** Short answer please: Activity ranking: most active compounds of the invention, A549 cells, entry Cc1ccc(-c2cc3ncnc(NNC(=S)Nc4ccccc4)c3s2)cc1
**Result** most active

**Query** Hi! What's the reported Activity ranking: most active compounds of the invention for Cc1cc(C)cc(-c2cc3ncnc(NNC(=S)NC4CC4)c3s2)c1 on A549 cells?
**Result** most active

**Query** What measured Activity ranking: most active compounds of the invention is associated with S=C(NCc1ccccc1)NNc1ncnc2cc(-c3ccccc3)sc12 on A549 cells?
**Result** most active

**Query** Lab request: please report Activity ranking: most active compounds of the invention under test system A549 cells for Cc1cc(C)cc(-c2cc3ncnc(NNC(=S)NCC4CCCO4)c3s2)c1 (centres unmarked)
**Result** most active

**Query** Provide the documented Activity ranking: most active compounds of the invention with A549 cells as the system for COCCCNC(=S)NNc1ncnc2cc(-c3cc(C)cc(C)c3)sc12
**Result** most active

**Query** Item: Cc1cc(C)cc(-c2cc3ncnc(NNC(=S)NC(C)C)c3s2)c1 Test system: A549 cells Read-out: Activity ranking: most active compounds of the invention Value: ?
**Result** most active

**Query** Notebook entry, A549 cells assay: Activity ranking: most active compounds of the invention of COCCCNC(=S)NNc1ncnc2cc(-c3ccccc3)sc12 = ?
**Result** most active

**Query** Given the entry COc1ccc(NC(=S)NNc2ncnc3cc(-c4ccccc4)sc23)c(OC)c1 , what Activity ranking: most active compounds of the invention was observed with A549 cells?
**Result** most active

**Query** Activity ranking: most active compounds of the invention of S=C(NC[C@H]1CCCO1)NNc1ncnc2cc(-c3ccccc3)sc12 on A549 cells?
**Result** most active

**Query** Which measured Activity ranking: most active compounds of the invention belongs to Cc1cccc(-c2cc3ncnc(NNC(=S)NC4CC4)c3s2)c1 , tested on A549 cells?
**Result** most active

**Query** Param readout = Activity ranking: most active compounds of the invention; param system = A549 cells; param query = COCCCNC(=S)NNc1ncnc2cc(-c3cccc(C)c3)sc12 ; response: value
**Result** most active

---

System: A549 cells
Assay: Bromodeoxyuridine (BrdU) proliferation assay
Assay type: cell-based, human
Details: Homo sapiens, A549, 48 h, BrdU ELISA 48 hours after addition of compound; tested 0.03-10 uM; cell line not given (A549 method; SW-480 and MDA-MB-231 also used); read-out: Assay Result (IC50μM)
Description: In order to determine the antiproliferative activity of microtubule inhibitors, A549 cells were plated in 96 well plates at 2000 cells/well 24 hours prior to the addition of a compound of the invention in 80 ul growth media (F12K, 10% FBS, Pen/Strep). […] Forty-eight hours after the addition of compound, the effects on cellular proliferation were measured using a cell proliferation BrdU ELISA (Roche Molecular Biochemicals, Cat.#1 669 915).
Listing of recorded pIC50 by entry.
For clarity, pIC50 is expressed as the negative log10 of concentration in mol/L.

// solved cases for pIC50 follow
1) COc1ccc(NC(=S)NNc2ncnc3cc(-c4ccccc4)sc23)cc1OC [Compound 15] | 5.17
2) S=C(NCC1CCCO1)NNc1ncnc2cc(-c3ccccc3)sc12 (stereo not shown) [Compound 63] | 6.68
3) COc1ccc(-c2cc3ncnc(NNC(=S)Nc4ccccc4)c3s2)cc1 [Compound 33] | 6.81
4) OCCCCNC(=S)NNc1ncnc2cc(-c3ccccc3)sc12 [Compound 28] | 5.20
5) Cc1cc(C)cc(-c2cc3ncnc(NNC(=S)NC(C)C)c3s2)c1 [Compound 99] | 7.07

**Query** Consider the molecule COCCNC(=S)NNc1ncnc2cc(-c3cccc(C(F)(F)F)c3)sc12 [Compound 91] and give its measured pIC50.
**Result** 5.66

---

System: A549 cells
Test: Bromodeoxyuridine (BrdU) proliferation assay
Type: cell-based, human
Settings: Homo sapiens, A549, 48 h, BrdU ELISA 48 hours after addition of compound; tested 0.03-10 uM; cell line not given (A549 method; SW-480 and MDA-MB-231 also used); read-out: Assay Result (IC50μM)
Protocol: In order to determine the antiproliferative activity of microtubule inhibitors, A549 cells were plated in 96 well plates at 2000 cells/well 24 hours prior to the addition of a compound of the invention in 80 ul growth media (F12K, 10% FBS, Pen/Strep). […] Forty-eight hours after the addition of compound, the effects on cellular proliferation were measured using a cell proliferation BrdU ELISA (Roche Molecular Biochemicals, Cat.#1 669 915).
pIC50: −log10 of the molar value.
Please enter 1 where pIC50 is greater than or equal to 7, and 0 where it is lower.

1) COc1cccc(NC(=S)NNc2ncnc3cc(-c4ccccc4)sc23)c1 | 0

Field: next molecule
**Query** Dear colleague, could you confirm whether COCCNC(=S)NNc1ncnc2cc(-c3cc(C)cc(C)c3)sc12 has pIC50 at or above 7?
**Result** 1

All values here come from patent US7071190B2.
